The entries below are paired with their reported IC50.
Test system: 695427-040-R-J1-PDC complex spheroid viability;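 further: viability read after seven days of drug exposure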
Assay: Anticancer human tumor 695427-040-R-J1-PDC patient-derived colon adenocarcinoma cell line growth inhibition [RAS]
Details: curve of first compound; second compound 0.3 µM
Test readout: IC50

compound="CC(C)NCC(C(=O)N1CCN(c2ncnc3c2C(C)CC3O)CC1)c1ccc(Cl)cc1 (stereo not drawn) + CCn1c(-c2cccnc2C(C)OC)c2c3cc(ccc31)N1CCOC(CC(NC(=O)C(C(C)C)N(C)C(=O)C3(F)CCN(C(=O)C#CC(C)(C)N(C)C)CC3)C(=O)N3CCCC(N3)C(=O)OCC(C)(C)C2)C1" result="> 10000 nM"
compound="Cc1nc(N2CCC3(CC2)COC(C)C3N)c(CO)nc1Sc1ccnc(N)c1Cl (stereo not drawn) + CCn1c(-c2cccnc2C(C)OC)c2c3cc(ccc31)N1CCOC(CC(NC(=O)C(C(C)C)N(C)C(=O)C3(F)CCN(C(=O)C#CC(C)(C)N(C)C)CC3)C(=O)N3CCCC(N3)C(=O)OCC(C)(C)C2)C1" result="2820 nM"
compound="CC(Nc1ccc2c(c1)OCCn1cc(N3C(=O)OCC3C(F)F)nc1-2)C(N)=O (stereo not drawn) + CCn1c(-c2cc(N3CCN(C)CC3)cnc2C(C)OC)c2c3cc(ccc31)-c1csc(n1)CC(NC(=O)C1CC1C)C(=O)N1CCCC(N1)C(=O)OCC(C)(C)C2" result="< 31.6 nM"
compound="CC1(O)CCCC1n1c(=O)c(C(F)F)cc2cnc(NC3CCN(S(C)(=O)=O)CC3)nc21 (stereo not drawn) + CCn1c(-c2cc(N3CCN(C)CC3)cnc2C(C)OC)c2c3cc(ccc31)-c1csc(n1)CC(NC(=O)C1CC1C)C(=O)N1CCCC(N1)C(=O)OCC(C)(C)C2" result="< 31.6 nM"
compound="CCN1CCN(Cc2ccc(Nc3ncc(F)c(-c4cc(F)c5nc(C)n(C(C)C)c5c4)n3)nc2)CC1 + CCn1c(-c2cc(N3CCN(C)CC3)cnc2C(C)OC)c2c3cc(ccc31)-c1csc(n1)CC(NC(=O)C1CC1C)C(=O)N1CCCC(N1)C(=O)OCC(C)(C)C2" result="< 3.16 nM"
compound="Cc1nc(N2CCC3(CC2)COC(C)C3N)c(CO)nc1Sc1ccnc(N)c1Cl (stereo not drawn) + CCn1c(-c2cc(N3CCN(C)CC3)cnc2C(C)OC)c2c3cc(ccc31)-c1csc(n1)CC(NC(=O)C1CC1C)C(=O)N1CCCC(N1)C(=O)OCC(C)(C)C2" result="< 31.6 nM"
compound="C[C@@H](NC(=O)c1ncnc(N)c1Cl)c1ncc(C(=O)Nc2cc(C(F)(F)F)c(Cl)cn2)s1 + CCn1c(-c2cccnc2C(C)OC)c2c3cc(ccc31)N1CCOC(CC(NC(=O)C(C(C)C)N(C)C(=O)C3(F)CCN(C(=O)C#CC(C)(C)N(C)C)CC3)C(=O)N3CCCC(N3)C(=O)OCC(C)(C)C2)C1" result="> 10000 nM"
compound="CC(Nc1ccc2c(c1)OCCn1cc(N3C(=O)OCC3C(F)F)nc1-2)C(N)=O (stereo not drawn) + CCn1c(-c2cccnc2C(C)OC)c2c3cc(ccc31)N1CCOC(CC(NC(=O)C(C(C)C)N(C)C(=O)C3(F)CCN(C(=O)C#CC(C)(C)N(C)C)CC3)C(=O)N3CCCC(N3)C(=O)OCC(C)(C)C2)C1" result="> 10000 nM"
